Molecular target: Sodium-dependent dopamine transporter (Homo sapiens, UniProt Q01959); note: assay procedure not described here
Sequence (Q01959 whole entry): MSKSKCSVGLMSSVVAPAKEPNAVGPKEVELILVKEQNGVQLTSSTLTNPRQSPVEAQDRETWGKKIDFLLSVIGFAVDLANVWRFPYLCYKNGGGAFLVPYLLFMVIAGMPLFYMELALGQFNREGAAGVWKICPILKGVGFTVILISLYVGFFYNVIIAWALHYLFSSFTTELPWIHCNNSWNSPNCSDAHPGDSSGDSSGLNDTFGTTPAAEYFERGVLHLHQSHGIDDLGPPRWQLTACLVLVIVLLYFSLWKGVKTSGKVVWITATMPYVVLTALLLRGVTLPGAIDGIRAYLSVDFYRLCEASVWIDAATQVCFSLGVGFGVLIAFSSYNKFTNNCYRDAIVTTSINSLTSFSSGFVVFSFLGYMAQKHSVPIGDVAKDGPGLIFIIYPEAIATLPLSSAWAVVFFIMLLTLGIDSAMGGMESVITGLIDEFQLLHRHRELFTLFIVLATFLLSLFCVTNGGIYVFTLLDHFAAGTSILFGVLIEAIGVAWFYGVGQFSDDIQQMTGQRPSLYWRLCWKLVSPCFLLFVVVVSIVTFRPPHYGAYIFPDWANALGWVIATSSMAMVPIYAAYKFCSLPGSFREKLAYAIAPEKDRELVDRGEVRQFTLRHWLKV

compound: Cc1ccccc1C(=O)Nc1ccc(C(=O)N2CCCC(N(C)C)c3ccccc32)cc1 (stereo not drawn)
AC50: > 30 µM

compound: C[C@H]1O[C@@H](n2cc(F)c(=O)[nH]c2=O)[C@H](O)[C@@H]1O
AC50: > 30 µM

compound: CC[C@H](c1ccc(O)cc1)[C@@H](CC)c1ccc(O)cc1
AC50: 3.31 µM

###

Data export: AC50 values recorded with Cannabinoid receptor 1 (Homo sapiens, UniProt P21554).
Sequence (P21554 whole entry): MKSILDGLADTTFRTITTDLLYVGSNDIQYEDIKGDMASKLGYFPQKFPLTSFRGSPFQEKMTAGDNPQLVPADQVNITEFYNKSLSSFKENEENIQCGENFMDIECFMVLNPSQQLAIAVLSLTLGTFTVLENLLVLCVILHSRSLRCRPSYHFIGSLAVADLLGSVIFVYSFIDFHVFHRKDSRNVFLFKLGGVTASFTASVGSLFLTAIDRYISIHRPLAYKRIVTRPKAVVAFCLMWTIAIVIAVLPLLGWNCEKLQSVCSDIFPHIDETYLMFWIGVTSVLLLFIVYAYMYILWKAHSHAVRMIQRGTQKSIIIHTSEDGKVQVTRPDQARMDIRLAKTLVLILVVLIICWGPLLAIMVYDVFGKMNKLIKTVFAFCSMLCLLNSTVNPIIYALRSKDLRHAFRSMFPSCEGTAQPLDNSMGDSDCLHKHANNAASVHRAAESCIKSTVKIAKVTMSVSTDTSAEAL
observation type: AC50

molecule: CCOC(=O)C1=C(C)NC(C)=C(C(=O)OC)C1c1cccc([N+](=O)[O-])c1 (stereo not drawn)
study system: Cannabinoid receptor 1 (Homo sapiens, UniProt P21554); note: assay procedure not described here
observation type: AC50
result: > 10 µM
--
molecule: CC(C)NCC(O)c1ccc(O)c(O)c1 (stereo not drawn)
study system: Cannabinoid receptor 1 (Homo sapiens, UniProt P21554); note: assay procedure not described here
observation type: AC50
result: > 10 µM
--
molecule: C/C(=C\C(=O)OCCCCCCCCC(=O)O)C[C@@H]1OC[C@H](C[C@@H]2O[C@H]2[C@@H](C)[C@H](C)O)[C@@H](O)[C@H]1O
study system: Cannabinoid receptor 1 (Homo sapiens, UniProt P21554); note: assay procedure not described here
observation type: AC50
result: > 10 µM
--
molecule: CC(C)(C)C(=O)OCC(=O)[C@H]1CC[C@H]2[C@@H]3CCC4=CC(=O)CC[C@]4(C)[C@H]3CC[C@]12C [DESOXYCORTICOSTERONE PIVALATE]
study system: Cannabinoid receptor 1 (Homo sapiens, UniProt P21554); note: assay procedure not described here
observation type: AC50
result: > 10 µM
--
molecule: C[C@@H](Oc1cc(-c2cnn(C3CCNCC3)c2)cnc1N)c1c(Cl)ccc(F)c1Cl
study system: Cannabinoid receptor 1 (Homo sapiens, UniProt P21554); note: assay procedure not described here
observation type: AC50
result: > 10 µM
--
molecule: CCCC(CCC)C(=O)O
study system: Cannabinoid receptor 1 (Homo sapiens, UniProt P21554); note: assay procedure not described here
observation type: AC50
result: > 10 µM
--
molecule: N[C@@H](CC(=O)N1CCn2c(nnc2C(F)(F)F)C1)Cc1cc(F)c(F)cc1F
study system: Cannabinoid receptor 1 (Homo sapiens, UniProt P21554); note: assay procedure not described here
observation type: AC50
result: > 10 µM
--
molecule: CCC(=O)O[C@H]1CC[C@H]2[C@@H]3CCC4=CC(=O)CC[C@]4(C)[C@H]3CC[C@]12C [TESTOSTERONE PROPIONATE]
study system: Cannabinoid receptor 1 (Homo sapiens, UniProt P21554); note: assay procedure not described here
observation type: AC50
result: > 10 µM

###

Target: 5-hydroxytryptamine receptor 2B (Homo sapiens); note: assay procedure not described here
Sequence (P41595 whole entry): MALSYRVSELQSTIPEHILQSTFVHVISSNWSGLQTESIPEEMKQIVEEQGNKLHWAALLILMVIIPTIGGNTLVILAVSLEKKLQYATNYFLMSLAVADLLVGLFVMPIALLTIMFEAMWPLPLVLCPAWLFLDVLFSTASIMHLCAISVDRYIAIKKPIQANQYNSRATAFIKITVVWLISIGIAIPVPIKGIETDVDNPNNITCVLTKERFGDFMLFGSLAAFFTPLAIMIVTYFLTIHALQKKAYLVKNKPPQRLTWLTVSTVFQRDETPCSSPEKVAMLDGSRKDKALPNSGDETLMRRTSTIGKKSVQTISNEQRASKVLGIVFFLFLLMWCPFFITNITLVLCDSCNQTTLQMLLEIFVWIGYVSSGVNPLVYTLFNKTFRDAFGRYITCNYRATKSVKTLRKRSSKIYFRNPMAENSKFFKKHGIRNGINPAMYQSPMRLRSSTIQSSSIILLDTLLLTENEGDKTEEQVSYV
Type: functional, cell-based
The following molecules are shown together with reported AC50 values.
observation type: AC50

molecule: C/C(=C\C(=O)OCCCCCCCCC(=O)O)C[C@@H]1OC[C@H](C[C@@H]2O[C@H]2[C@@H](C)[C@H](C)O)[C@@H](O)[C@H]1O [MUPIROCIN]
observation type: AC50
result: > 10 µM

molecule: CN1C(C(=O)Nc2ccccn2)=C(O)c2ccccc2S1(=O)=O [PIROXICAM]
observation type: AC50
result: > 10 µM

molecule: OC1(c2ccc(Cl)cc2)c2ccccc2C2=NCCN21 (centres undefined) [MAZINDOL]
observation type: AC50
result: > 30 µM

molecule: Cc1cccc(N2CC(CO)OC2=O)c1 (centres undefined) [TOLOXATONE]
observation type: AC50
result: > 30 µM

molecule: CCN1CCN(Cc2ccc(Nc3ncc(F)c(-c4cc(F)c5nc(C)n(C(C)C)c5c4)n3)nc2)CC1 [ABEMACICLIB]
observation type: AC50
result: > 30 µM

molecule: Cc1ncc2n1-c1ccc(Cl)cc1C(c1ccccc1F)=NC2 [MIDAZOLAM]
observation type: AC50
result: > 10 µM

molecule: CC(S)C(=O)NCC(=O)O (centres undefined) [TIOPRONIN]
observation type: AC50
result: > 30 µM

molecule: Cc1cc2cc3c(C)cc(=O)oc3c(C)c2o1 [TRIOXSALEN]
observation type: AC50
result: > 10 µM

molecule: COc1ccc(-c2noc(CC(=O)O)c2-c2ccc(OC)cc2)cc1 [MOFEZOLAC]
observation type: AC50
result: > 30 µM

molecule: CC(CCc1ccc(O)cc1)NCCc1ccc(O)c(O)c1 (centres undefined) [DOBUTAMINE]
observation type: AC50
result: > 30 µM

molecule: O=C1C(CC[S+]([O-])c2ccccc2)C(=O)N(c2ccccc2)N1c1ccccc1 (centres undefined) [SULFINPYRAZONE]
observation type: AC50
result: > 30 µM

molecule: CC(=O)O[C@H](CC(=O)[O-])C[N+](C)(C)C [ACETYLCARNITINE]
observation type: AC50
result: > 30 µM

molecule: Nc1cc(-c2ccncc2)c[nH]c1=O [INAMRINONE]
observation type: AC50
result: > 10 µM

molecule: CC1(C)S[C@@H]2[C@H](NC(=O)[C@H](N)c3ccccc3)C(=O)N2[C@H]1C(=O)OCOC(=O)[C@@H]1N2C(=O)C[C@H]2S(=O)(=O)C1(C)C [SULTAMICILLIN]
observation type: AC50
result: > 30 µM

molecule: C#CCOc1ccc(N)cc1C(=O)NCCCC [PARSALMIDE]
observation type: AC50
result: > 30 µM

molecule: CCC(=O)O[C@H]1CC[C@H]2[C@@H]3CCC4=CC(=O)CC[C@]4(C)[C@H]3CC[C@]12C [TESTOSTERONE PROPIONATE]
observation type: AC50
result: > 10 µM

molecule: Nc1ncn([C@H]2C[C@H](O)[C@@H](CO)O2)c(=O)n1 [DECITABINE]
observation type: AC50
result: > 30 µM

molecule: C[C@H](CCC(=O)O)[C@H]1CC[C@H]2[C@@H]3[C@@H](O)C[C@@H]4C[C@H](O)CC[C@]4(C)[C@H]3CC[C@]12C [URSODIOL]
observation type: AC50
result: > 30 µM

molecule: CCOC(=O)C1=C(C)NC(C)=C(C(=O)OC)C1c1cccc([N+](=O)[O-])c1 (centres undefined) [NITRENDIPINE]
observation type: AC50
result: > 10 µM

molecule: COc1cc2nccc(Oc3ccc(NC(=O)C4(C(=O)Nc5ccc(F)cc5)CC4)cc3)c2cc1OC [CABOZANTINIB]
observation type: AC50
result: > 30 µM

molecule: OCc1cc(C(O)CNCCCCCCOCCCCc2ccccc2)ccc1O (centres undefined) [SALMETEROL]
observation type: AC50
result: > 10 µM

molecule: CN(C)CC[C@@H](c1ccc(Cl)cc1)c1ccccn1 [DEXCHLORPHENIRAMINE]
observation type: AC50
result: > 30 µM

molecule: O=C1CCc2cc(OCCCCc3nnnn3C3CCCCC3)ccc2N1 [CILOSTAZOL]
observation type: AC50
result: > 30 µM

molecule: CCCC(CCC)C(=O)O [VALPROIC ACID]
observation type: AC50
result: > 10 µM

molecule: C#C[C@]1(OC(C)=O)CC[C@H]2[C@@H]3CCC4=C/C(=N/O)CC[C@@H]4[C@H]3CC[C@@]21CC [NORGESTIMATE]
observation type: AC50
result: > 30 µM

molecule: CC(C)N(CCC(C(N)=O)(c1ccccc1)c1ccccn1)C(C)C (centres undefined) [DISOPYRAMIDE]
observation type: AC50
result: > 10 µM

molecule: Cc1cc(C(C)(C)C)cc(C)c1CC1=NCCN1 [XYLOMETAZOLINE]
observation type: AC50
result: 1.16 µM

molecule: CC(N)C(O)c1ccccc1 (centres undefined) [PHENYLPROPANOLAMINE]
observation type: AC50
result: > 10 µM

molecule: CCOC(=O)c1cncn1[C@H](C)c1ccccc1 [ETOMIDATE]
observation type: AC50
result: > 10 µM

molecule: CCC(C)C(CC)C(N)=O (centres undefined) [VALNOCTAMIDE]
observation type: AC50
result: > 30 µM

molecule: CC(C)Cc1ccc(C(C)C(=O)O)cc1 (centres undefined) [IBUPROFEN]
observation type: AC50
result: > 10 µM

molecule: CCOC(=O)O[C@]1(C(=O)OCCl)CC[C@H]2[C@@H]3CCC4=CC(=O)C=C[C@]4(C)[C@H]3[C@@H](O)C[C@@]21C [LOTEPREDNOL ETABONATE]
observation type: AC50
result: > 30 µM

molecule: CC(=O)[C@@]1(O)CC[C@H]2[C@@H]3C=C(Cl)C4=CC(=O)[C@@H]5C[C@@H]5[C@]4(C)[C@H]3CC[C@@]21C [CYPROTERONE]
observation type: AC50
result: > 10 µM

molecule: CC(C(=O)O)c1ccc2c(c1)[nH]c1ccc(Cl)cc12 (centres undefined) [CARPROFEN]
observation type: AC50
result: > 10 µM

Data provenance: ChEMBL document CHEMBL5291721
